- Target System: human acetylcholine esterase (Homo sapiens, UniProt P22303)
- Construct: host or cells: HEK-293 cells
- Sequence (P22303 32-614): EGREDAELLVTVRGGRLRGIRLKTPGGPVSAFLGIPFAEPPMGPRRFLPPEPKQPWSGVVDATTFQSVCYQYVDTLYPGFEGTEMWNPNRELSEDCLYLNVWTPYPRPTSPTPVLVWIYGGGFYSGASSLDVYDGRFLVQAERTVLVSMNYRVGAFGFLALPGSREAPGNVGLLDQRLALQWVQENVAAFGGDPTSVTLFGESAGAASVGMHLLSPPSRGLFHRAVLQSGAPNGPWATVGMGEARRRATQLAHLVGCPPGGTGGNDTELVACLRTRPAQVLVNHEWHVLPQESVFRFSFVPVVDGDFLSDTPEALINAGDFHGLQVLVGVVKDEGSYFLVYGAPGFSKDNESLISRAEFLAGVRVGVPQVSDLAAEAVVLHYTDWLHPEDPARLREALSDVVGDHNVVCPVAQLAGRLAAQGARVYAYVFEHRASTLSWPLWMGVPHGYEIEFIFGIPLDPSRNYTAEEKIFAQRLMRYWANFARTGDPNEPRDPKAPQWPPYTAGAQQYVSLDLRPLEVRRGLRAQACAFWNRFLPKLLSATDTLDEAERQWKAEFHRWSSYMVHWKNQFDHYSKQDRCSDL
- Experimental Details: Human acetylcholine esterase inhibition (human recombinant, HEK-293 cells; Ellman photometry)
- Type: biochemical
- Test Parameters: human recombinant (HEK-293 cells); AMTCh 50 μM; 30 min./37° C.; read-out: IC50 for inhibition of human acetyl choline esterase
Listed compounds paired with reported IC50
Answer format: numeric, µM implied, no suffix.

Some entries whose results are on file:
{"Smiles Data": "COc1ccc2c3c1O[C@H]1C[C@@H](OC(=O)Nc4cccc(C(=O)O)c4)C=C[C@@]31CCN(C)C2", "Target System": "human acetylcholine esterase (Homo sapiens, UniProt P22303)", "Assay Readout": "IC50", "Observed Result": 26}
{"Smiles Data": "COc1ccc2c3c1O[C@H]1C[C@@H](OC(=O)Nc4ccc(C(=O)O)cc4)C=C[C@@]31CCN(C)C2", "Target System": "human acetylcholine esterase (Homo sapiens, UniProt P22303)", "Assay Readout": "IC50", "Observed Result": 32}

Item: COc1ccc2c3c1O[C@H]1C[C@@H](OC(=O)NCc4ccc(C(=O)O)cc4)C=C[C@@]31CCN(C)C2 Test system: human acetylcholine esterase (Homo sapiens, UniProt P22303) Read-out: IC50 Value: ? 46

Item: COc1ccc2c3c1O[C@H]1C[C@@H](OC(=O)Nc4ccc(C(=O)O)cn4)C=C[C@@]31CCN(C)C2 Test system: human acetylcholine esterase (Homo sapiens, UniProt P22303) Read-out: IC50 Value: ? 55

---

- Test Parameters: USP SGF pH 1.2, 37 deg. C., 1 hour
Assay Readout: % Prodrug Remaining (%)
Answer format: numeric, % implied, no suffix.

Some entries whose results are on file:
{"Compound": "COc1ccc2c3c1O[C@H]1C[C@@H](OC(=O)Nc4cccc(C(=O)O)c4)C=C[C@@]31CCN(C)C2", "% Prodrug Remaining, %": 100}
{"Compound": "COc1ccc2c3c1O[C@H]1C[C@@H](OC(=O)Nc4ccc(C(=O)O)cn4)C=C[C@@]31CCN(C)C2", "% Prodrug Remaining, %": 100}
{"Compound": "COc1ccc2c3c1O[C@H]1C[C@@H](OC(=O)NCc4ccc(C(=O)O)cc4)C=C[C@@]31CCN(C)C2", "% Prodrug Remaining, %": 100}
{"Compound": "COc1ccc2c3c1O[C@H]1C[C@@H](OC(=O)Nc4ccc(C(=O)O)cc4)C=C[C@@]31CCN(C)C2", "% Prodrug Remaining, %": 100}

Let's switch to this compound now.
Could you tell me which % Prodrug Remaining is on file for COc1ccc2c3c1O[C@H]1C[C@@H](OC(=O)N[C@@H](Cc4ccccc4)C(=O)O)C=C[C@@]31CCN(C)C2 [Galantamine phenylalanine carbamate] ? 94.7

---

Listed compounds paired with reported % Prodrug Remaining
- Test Parameters: USP SIF pH 6.8, 37 deg. C., 2 hours
Answer format: numeric, % implied, no suffix.

Some entries whose results are on file:
{"Compound": "COc1ccc2c3c1O[C@H]1C[C@@H](OC(=O)Nc4cccc(C(=O)O)c4)C=C[C@@]31CCN(C)C2", "% Prodrug Remaining [%]": 100}
{"Compound": "COc1ccc2c3c1O[C@H]1C[C@@H](OC(=O)NCc4ccc(C(=O)O)cc4)C=C[C@@]31CCN(C)C2", "% Prodrug Remaining [%]": 100}

Could you tell me which % Prodrug Remaining is on file for COc1ccc2c3c1O[C@H]1C[C@@H](OC(=O)Nc4ccc(C(=O)O)cn4)C=C[C@@]31CCN(C)C2 ? 100

Could you tell me which % Prodrug Remaining is on file for COc1ccc2c3c1O[C@H]1C[C@@H](OC(=O)Nc4ccc(C(=O)O)cc4)C=C[C@@]31CCN(C)C2 ? 100

Could you tell me which % Prodrug Remaining is on file for COc1ccc2c3c1O[C@H]1C[C@@H](OC(=O)N[C@@H](Cc4ccccc4)C(=O)O)C=C[C@@]31CCN(C)C2 [Galantamine phenylalanine carbamate] ? 95.6
